Origin of the recorded values: PubChem BioAssay (NCI)

Give log10(TGI) for every item shown.
# Test system: HL-60(TB) leukemia
# test summary: NCI tumour cell line growth inhibition, 48 h
A difference of one corresponds to tenfold TGI; all values are log10 with TGI in µM.

Enquiry: Identify measured log10(TGI) associated with "C=C(CN1CCN(c2cccc(C(F)(F)F)c2)CC1)c1ccc(C(=O)Nc2ccccc2N)cc1"
Return: -0.07

Enquiry: State its log10(TGI): "Clc1ccc(OCc2nnc3sc(-c4ccc(-c5ccc(Cl)cc5Cl)o4)nn23)c(Cl)c1"
Return: 1.98

Enquiry: Supply recorded log10(TGI) for "Cc1cc(O)c2c(c1)C(=O)c1cc(O)cc(O)c1C2=O" here.
Return: 1.88

Enquiry: Please list log10(TGI) recorded for the compound "C/C(Cl)=N\OC(=O)Nc1ccccc1C(F)(F)F"
Return: 1.19

Enquiry: Using the record for CC1C=C(OC(=O)c2ccccc2)C(=O)C(n2cc(F)c(=O)n(C(=O)c3ccccc3)c2=O)O1 (stereo not given) , state its measured log10(TGI).
Return: 1.70

---

# Tested on: KM12 colon
# test summary: NCI tumour cell line growth inhibition, 48 h
property measured: TGI

Enquiry: Give me measured TGI, please, for this molecule: "Cc1nc2c(nc1C)-c1c(c3c(n1Cc1ccccc1)C(=O)CCC3)C(=O)C2=O"
Return: 4.64 µM

Enquiry: Consider the molecule "Cc1ccc(S(=O)(=O)N2CCSCCSCCN(S(=O)(=O)c3ccc(C)cc3)CCN(S(=O)(=O)c3ccc(C)cc3)CC2)cc1" and give its recorded TGI.
Return: > 100 µM

Enquiry: Consider the molecule "COc1cccc(NCC(=O)Nn2c(-c3ccccc3)nc3ccccc3c2=O)c1" and give its recorded TGI.
Return: > 100 µM

Enquiry: Provide only the value of recorded TGI for "COc1cccc(/C=C/C(=O)c2ccc(Cl)cc2Cl)c1OC"
Return: 13.1 µM

Enquiry: Note TGI for the molecule shown: O=C1CC(Br)c2c(Cl)sc(Cl)c21 (stereo not given)
Return: 20.2 µM

Enquiry: Return TGI (reported value) for this molecule: "N#Cc1c(=O)c2cc([N+](=O)[O-])ccc2n2c1[nH]c1ccccc12"
Return: > 57.2 µM

Enquiry: Look up and state reported TGI for "COc1nn(Cc2ccccc2F)c2ccc([N+](=O)[O-])cc12"
Return: > 100 µM

Enquiry: Supply measured TGI of "Cc1cc(C)c2c(n1)S(=O)(=O)N(CCCN1CCN(c3cccc(C(F)(F)F)c3)CC1)/C(=C(\O)c1ccccc1)C2=O" in your reply.
Return: 27 µM

Enquiry: Input "Cc1cccc(-c2cc(=O)c3ccc(C)nc3[nH]2)c1" , output reported TGI.
Return: 20.5 µM

Enquiry: Query TGI for "CCN1/C(=C/c2ccc3ccccc3[n+]2CC)C=Cc2ccccc21"
Return: 1.4 µM

Enquiry: Please give measured TGI of the following entry: "COc1cc(/C=C/C(=O)c2cc(F)c(Cl)cc2Cl)cc(OC)c1OC"
Return: 26.4 µM

Enquiry: Using known records, supply TGI for "COc1ccc2nc(NCCCNCCO)c3sc4ccc(F)cc4c(=O)c3c2c1"
Return: 3.52 µM

Enquiry: Report TGI for CCCCCCCCCCCCCCCCCCNc1ccn(C2OC(COP(=O)(O)O)C(O)C2O)c(=O)n1 (stereo not given)
Return: > 100 µM

Enquiry: Specify reported TGI for the molecule shown: O=c1nc2n(cc1/C=C\Br)C1CC(O)C(CO2)O1 (stereo not given)
Return: > 100 µM

Enquiry: Return value of TGI for input "O=c1c2cc(Br)ccc2oc2nc3n(c(=O)c12)CCCS3" , no commentary.
Return: > 100 µM

Enquiry: Answer with the recorded TGI of "COC(=O)c1ccc2n1C1CC3CC(CC2C3)C1" only.
Return: > 100 µM

Enquiry: Could you please provide reported TGI for "CC(=O)Oc1ccn2nc(C)c(Br)c2c1Br" ? Thanks!
Return: > 100 µM

Enquiry: Give the reported TGI for this molecule. "O=C(O)c1c(-c2c3ccc(=O)cc-3oc3cc(O)ccc23)cc2ccccc2c1-c1ccccc1"
Return: > 100 µM

Enquiry: Determine its reported TGI: NC(=O)c1[nH]nc(C2OC(CO)C(O)C2O)c1O (stereo not given)
Return: 2980 µM

Enquiry: Indicate its recorded TGI; the molecule in question is "Cc1ccc(N=C2CSc3nnc(-c4csc5c4CCCC5)n3N2)cc1"
Return: > 50 µM

Enquiry: Dear colleague, please send me the reported TGI for "Nc1ccn([C@H]2C[C@@H](O)[C@@H](CO)S2)c(=O)n1" when you can.
Return: > 100 µM

Enquiry: Identify measured TGI associated with "O=S(=O)(O)CCS"
Return: > 100 µM

Enquiry: Supply recorded TGI for O=C(CCCCCCCCC(=O)NN1C(=O)/C(=C\c2ccc(O)c(O)c2)SC1c1c(O)ccc2ccccc12)NN1C(=O)C(=Cc2ccc(O)c(O)c2)SC1c1c(O)ccc2ccccc12 (stereo not given) here.
Return: > 100 µM

Enquiry: Read the entry "OCCSCCCSCCO" and write its reported TGI.
Return: > 100 µM

Enquiry: Supply measured TGI of CO/N=C1\CCC2(O)C3Cc4ccc(O)c5c4C2(CCN3CC2CC2)[C@H]1O5 (stereo not given in full) in your reply.
Return: > 100 µM

---

# Test system: K-562 leukemia
# test summary: NCI tumour cell line growth inhibition, 48 h; in the data active = GI50 below about 0.43 µM; inactive = the rest
Hi there, use one of these labels in your reply, thanks! active, inactive

Enquiry: Identify the outcome logged in this assay for the compound shown: "CC(C)(C)OC(=O)NCCCCCCCCn1c2c(c3ccccc3c1=O)C(=O)c1ccccc1-2"
Return: inactive

Enquiry: For "COc1c2ccccc2c(O)c2c(=O)c(C(=O)O)cn(C)c12" , what call appears in the results of this test?
Return: inactive

Enquiry: How was "Nc1c(C(=O)c2cccc(OCCN3CCOCC3)c2)cnn1-c1ccc(F)cc1" classified in this test?
Return: inactive

Enquiry: Assay outcome for "C=C(CNCCc1ccc(O)cc1)[C@@H]1CC[C@]2(CO)CC[C@]3(C)[C@H](CC[C@@H]4[C@@]5(C)CCC(=O)C(C)(C)[C@@H]5CC[C@]43C)[C@@H]12" : what was it?
Return: inactive

Enquiry: Given "Cc1ccc(S(=O)(=O)Oc2ccc3c4c(c(=O)oc3c2)CCCCC4)cc1" , state the outcome it received in this test.
Return: inactive

Enquiry: In this assay, the call recorded for "O=C1c2cccnc2-c2nc(/C=C/c3ccccc3)cc3c2c1nc1ccccc13" was what?
Return: inactive

Enquiry: Status in this test for "CN1CCN(c2ccc(-c3cnc4c(-c5csc6ccccc56)cnn4c3)cc2)CC1" ?
Return: inactive

Enquiry: Per the records of this test, what outcome belongs to "CN(C)c1ccc(/C=C/c2sc3ccc4ccccc4c3[n+]2C)cc1" ?
Return: active

Enquiry: For "N#C/C(=C/C=C(\Cl)c1ccc(Cl)cc1)C(N)=O" , what call appears in the results of this test?
Return: inactive

Enquiry: # lookup: test call for "CN(C)CCNC(=O)c1cccc2cc3ccccc3nc12"
Return: inactive

---

# Test system: UACC-62 melanoma
# test summary: NCI tumour cell line growth inhibition, 48 h
property measured: TGI

Enquiry: Look up and state reported TGI for C#CC(O)/C=C/CCCCCCC#CC/C=C\CC#CCCCCCC/C=C/C(O)C#C (stereo not given)
Return: 7.38 µM

Enquiry: Find the measured TGI of "Nc1ccn([C@H]2C[C@@H](O)[C@@H](CO)S2)c(=O)n1" and report it.
Return: > 100 µM

Enquiry: Output TGI of "N=c1c2c3n(c4c(=O)n(-c5ccccc5)c(=S)n(c(=O)n1-c1ccccc1)c24)CCCCC3"
Return: > 100 µM

Enquiry: Tell me TGI reported for "CCCCCCCCOc1ccc(/C=N/Nc2cc(C)nc3ccc(Cl)cc23)cc1"
Return: 3.49 µM

Enquiry: Identify TGI associated with the compound "O=C1c2cccnc2-c2nc(/C=C/c3ccccc3)cc3c2c1nc1ccccc13"
Return: 3.28 µM

Enquiry: # return recorded TGI for entry "Nc1c(C(=O)c2cccc(OCCN3CCOCC3)c2)cnn1-c1ccc(F)cc1"
Return: > 25 µM

Enquiry: Identify the reported TGI for the following entry. O=C(O)c1c(CC(Cc2ccc3c(c2)CCCC3)C(=O)O)ccc2c1CCCC2 (stereo not given)
Return: > 100 µM

Enquiry: For the compound CC1CCCC(C(O)CC2CC(=O)N(c3ccccc3)C(=O)C2)C1=O (stereo not given) , give its reported TGI.
Return: > 100 µM

Enquiry: Read off the recorded TGI for "C/C=C(/C)C(=O)O[C@@H]1c2c(C)coc2C[C@H]2CC[C@H](O)[C@H](C)[C@]21C"
Return: > 100 µM

Enquiry: Provide one value: measured TGI of "C=C(CN1CCN(c2cccc(C(F)(F)F)c2)CC1)c1ccc(C(=O)Nc2ccccc2N)cc1"
Return: 4.89 µM

---

# System: EKVX NSCLC
# test summary: NCI tumour cell line growth inhibition, 48 h
property measured: TGI

Enquiry: Please give measured TGI of the following entry: N#CCCC(CC#N)N1CCN(CCO)CC1 (stereo unspecified)
Return: > 100 µM

Enquiry: Tell us which TGI value is on record for CC(CN)[C@@H]1CC[C@]2(CO)CC[C@]3(C)[C@H](CC[C@@H]4[C@@]5(C)CCC(NCCO)C(C)(C)[C@@H]5CC[C@]43C)[C@@H]12 (stereo partly specified)
Return: 5.01 µM

Enquiry: Answer with reported TGI of "NC(=O)c1n[nH]n(-c2ccccc2)c1=O"
Return: > 100 µM

Enquiry: # return recorded TGI for input Nc1nc2c(ncn2CCOC(c2ccccc2)P(=O)(O)O)c(=O)[nH]1 (stereo unspecified)
Return: > 100 µM

Enquiry: State its TGI: O=C(O)CCC1COc2ccccc2O1 (stereo unspecified)
Return: > 10 µM

Enquiry: Return value of TGI for input OC(c1cccs1)c1cc2ccccc2s1 (stereo unspecified) , no commentary.
Return: > 10 µM
